- protocol-details: Solubility limits in aqueous buffers
- Type: physicochemical
- applied-conditions: potassium phosphate buffer, thermodynamic from solid, pH 7.4, 0.1 M K-Phosphate buffer
value-kind: solubility (µM)

[[record]]
chem_smiles = "O=[N+]([O-])c1ccc(SCCOCCO)c2nonc12"
measured = 2000


* * *

- tgt: GSTM2-2 (Homo sapiens)
- Sequence (P28161 1-218): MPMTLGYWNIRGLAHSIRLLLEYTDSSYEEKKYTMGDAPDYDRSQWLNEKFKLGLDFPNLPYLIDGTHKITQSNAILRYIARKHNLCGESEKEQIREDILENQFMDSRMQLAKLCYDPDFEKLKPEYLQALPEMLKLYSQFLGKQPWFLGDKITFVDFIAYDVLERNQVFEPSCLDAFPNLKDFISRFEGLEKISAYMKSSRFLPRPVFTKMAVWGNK
value-kind: IC50 (nM)

[[record]]
compound = "O=[N+]([O-])c1ccc(SCCOCCOCCO)c2nonc12 [MC3181]"
value_kind = "IC50"
unit_name = "nM"
limit_sign = "="
measured = 81

[[record]]
compound = "O=[N+]([O-])c1ccc(SCCOCCO)c2nonc12 [MC3165]"
value_kind = "IC50"
unit_name = "nM"
limit_sign = "="
measured = 51

[[record]]
compound = "O=[N+]([O-])c1ccc(SCCCCCCO)c2nonc12 [NBDHEX, reference compound]"
value_kind = "IC50"
unit_name = "nM"
limit_sign = "≤"
measured = 10


* * *

- protocol-details: Solubility limits in aqueous buffers
- Assay type: physicochemical
- applied-conditions: sodium acetate buffer, thermodynamic from solid, pH 2.0, 0.1 M Na-Acetate Buffer
value-kind: solubility (µM)

[[record]]
chem_smiles = "O=[N+]([O-])c1ccc(SCCOCCO)c2nonc12"
value_kind = "solubility"
measured = 2000


This collection of values is drawn from paper PMC4414177.
